Source: patent US20230235054A1

Items are presented alongside their recorded Ratio (pH 7.4/6.0) of EC50.
# experimentalSystem: T1, human Nectin-4 on cells (human, UniProt Q96NY8 32-510)
# T1 construct: whole, on cells; also called HEK293 cells expressing human Nectin-4; T47D cells that express human Nectin-4
# T1 sequence (looked up): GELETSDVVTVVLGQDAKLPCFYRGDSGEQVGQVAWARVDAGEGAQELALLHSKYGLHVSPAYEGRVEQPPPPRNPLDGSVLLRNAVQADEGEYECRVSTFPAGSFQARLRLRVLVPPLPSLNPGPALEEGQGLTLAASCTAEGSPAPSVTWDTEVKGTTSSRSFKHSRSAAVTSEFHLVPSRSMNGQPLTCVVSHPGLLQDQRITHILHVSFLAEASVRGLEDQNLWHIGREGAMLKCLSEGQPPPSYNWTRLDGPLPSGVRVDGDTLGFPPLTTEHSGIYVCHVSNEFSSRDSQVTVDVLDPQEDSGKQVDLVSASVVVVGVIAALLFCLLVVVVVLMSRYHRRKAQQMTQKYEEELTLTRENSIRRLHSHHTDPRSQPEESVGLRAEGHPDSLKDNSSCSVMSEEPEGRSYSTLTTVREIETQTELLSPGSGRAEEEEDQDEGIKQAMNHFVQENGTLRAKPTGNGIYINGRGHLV
# protocolDescription: FACS, HEK293 cells expressing human Nectin-4
measuredProperty: Ratio (pH 7.4/6.0) of EC50

INSERT INTO results (binder, endpointvalue) VALUES
  ('BAP-143-07-03-12 (antibody, V domains shown, Used as a conjugate with a linker payload (CAB ADC)) VH: EVQLVESGGGLVQPGGSLRLSCAASGFTFSSYNMNWVRQAPGKGLEWVSYISSSSSTIYYADSVKGRFTISRDNAKNSLSLQMNSLRDEDTAVYYCARAYYYGMDKWGQGTTVTVSS VL: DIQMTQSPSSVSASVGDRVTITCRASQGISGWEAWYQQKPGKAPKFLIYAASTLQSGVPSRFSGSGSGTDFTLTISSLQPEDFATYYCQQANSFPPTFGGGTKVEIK', 2),
  ('BAP-143-06-33-03 (antibody, V domains shown, Used as a conjugate with a linker payload (CAB ADC)) VH: QVQLVQSGAEVKKPGASVKVSCKASGFTFSSYNMNWVRQARGQRLEWIGYISSSSSTIYYADSVKGRFTISRDNSKNTLYLQMNSLRAEDTAVYYCARAYYYGMDKWGQGTLVTVSS VL: DIQMTQSPSSVSASVGDRVTITCRASQGISGWLAWYQQKPGKAPKFLIYAASTLQSGVPSRFSGSGSGTDFTLTISSLQPEDFATYYCQQANSEPPTFGGGTKVEIK', 2.8);
